Target: pseudo-kinase domain (JH2, amino-acids 536-812) of human V617F mutant JAK2 (Homo sapiens (Human), UniProt O60674, F794H/V617F/W659A/W777A)
Sequence (O60674 536-812 V617F/W659A/W777A/F794H): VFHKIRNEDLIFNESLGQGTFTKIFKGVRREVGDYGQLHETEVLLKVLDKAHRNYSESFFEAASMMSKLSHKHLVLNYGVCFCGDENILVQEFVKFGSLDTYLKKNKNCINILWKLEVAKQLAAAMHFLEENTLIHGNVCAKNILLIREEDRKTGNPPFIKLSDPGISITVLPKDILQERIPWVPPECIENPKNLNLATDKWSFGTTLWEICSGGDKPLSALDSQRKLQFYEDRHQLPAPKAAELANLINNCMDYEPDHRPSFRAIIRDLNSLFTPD
Assay: JAK2 LanthaScreen JH2-V617F Binding Assay
Conditions: JAK2 JH2-V617F 0.26 nM, 50 nM fluorescent tracer, 1 hour at 25° C.; read-out: JH2 BIND V617F IC50
Protocol: The assay was conducted in black 384-well polystyrene plates in a final reaction volume of 20 μL. […] Non-specific binding was accessed in the presence of 2 mM ATP. After incubation for 1 hour at 25° C., LanthaScreen signals were read on a PHERAstar FS plate reader (BMG LABTECH). Data was analyzed with IDBS XLfit and GraphPad Prism 5.0 software using a four parameter dose response curve to determine IC50 for each compound.
This section presents compounds with their documented IC50 values.

- compound: "CN1C(=O)N(c2ccc(C(=O)O)cc2)Cc2c1cnc1[nH]c(-c3ccc(CN4CCC(S(C)(=O)=O)CC4)cc3)cc21 [Example 3]"
  IC50: "≤ 100 nM"
- compound: "CC1c2c(cnc3[nH]c(-c4ccc(CN5CCC(S(C)(=O)=O)CC5)cc4)cc23)N(C)C(=O)N1c1ccc(C(=O)O)cc1 (racemic) [Example 10]"
  IC50: "100 to 500 nM"
- compound: "CNC(=O)c1ccc(N2Cc3c(cnc4[nH]c(-c5ccc(CN6CCC(S(C)(=O)=O)CC6)cc5)c(-c5ccc(OC)cc5)c34)N(C)C2=O)cc1 [Example 12]"
  IC50: "≤ 100 nM"

Source of measurements: patent US11661422B2
